ASSAY SYSTEM: T1, human DLL4, full length, on cells (human, UniProt Q9NR61 27-685)
T1 construct: also called huDLL4 cells; human DLL4-293G
T1 sequence (Q9NR61 27-685 limits assumed): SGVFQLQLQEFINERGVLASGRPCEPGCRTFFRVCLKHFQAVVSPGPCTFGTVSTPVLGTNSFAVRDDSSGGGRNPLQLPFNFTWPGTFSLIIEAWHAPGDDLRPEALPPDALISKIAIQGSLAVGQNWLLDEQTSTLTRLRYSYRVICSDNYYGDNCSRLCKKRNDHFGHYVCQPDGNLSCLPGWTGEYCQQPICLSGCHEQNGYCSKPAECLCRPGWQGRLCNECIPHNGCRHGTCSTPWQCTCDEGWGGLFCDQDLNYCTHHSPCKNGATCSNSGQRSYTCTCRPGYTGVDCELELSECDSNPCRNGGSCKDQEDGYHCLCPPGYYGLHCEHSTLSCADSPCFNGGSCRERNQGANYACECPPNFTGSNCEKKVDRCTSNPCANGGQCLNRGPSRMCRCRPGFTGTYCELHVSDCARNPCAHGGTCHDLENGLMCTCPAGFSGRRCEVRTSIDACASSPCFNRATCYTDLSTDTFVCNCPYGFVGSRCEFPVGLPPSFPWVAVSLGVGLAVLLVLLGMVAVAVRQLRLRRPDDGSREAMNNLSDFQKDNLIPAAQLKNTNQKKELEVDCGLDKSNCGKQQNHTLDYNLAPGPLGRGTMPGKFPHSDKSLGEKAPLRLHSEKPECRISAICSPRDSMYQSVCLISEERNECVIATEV
METHOD SUMMARY: FACS, DLL4 cells
pEC50: −log10 of the molar value.
MEASURED PARAMETER: pEC50

- h38H12.15 (antibody, V domains shown, humanized IgG; also called VH.2a/VL.1b 38H12) VH: EVQLVESGGGLVQPGGSLRLSCAASGFTFSNYGMYWIRQAPGKGLEWVAFISHGGGITYYRDSVKGRFTISRDNSKSTLYLQMNSLRAEDTAVYHCAALNWELGIDYWGQGTMVTVSS VL: DIQMTQSPSSLSASVGDRVTITCRASEDIYSNLAWYQQKPGKAPKLLIYAANRLQDGVPSRFSGSGSGTDYTLTISSLQPEDFATYYCLQGSKFPLTFGQGTKLEIKR: 8.63
- h38H12.9 (antibody, V domains shown, humanized IgG; also called VH.1b/VL.1 38H12) VH: EVQLVESGGGVVQPGRSLRLSCAASGFTFSNYGMYWVRQAPGKGLEWVAFISHGGGITYYRDSVKGRFTISRDNSKNTLYLQMNSLRAEDTAVYYCAALNWELGIDYWGQGTMVTVSS VL: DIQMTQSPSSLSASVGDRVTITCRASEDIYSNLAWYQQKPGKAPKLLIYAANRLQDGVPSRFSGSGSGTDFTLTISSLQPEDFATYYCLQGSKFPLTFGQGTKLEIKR: 8.43
- h38H12.12 (antibody, V domains shown, humanized IgG; also called VH.1b/VL.2a 38H12) VH: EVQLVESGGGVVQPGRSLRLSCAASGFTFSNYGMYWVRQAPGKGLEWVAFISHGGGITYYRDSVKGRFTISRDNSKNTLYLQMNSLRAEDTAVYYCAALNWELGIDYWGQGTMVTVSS VL: EIVMTQSPATLSVSPGERATLSCRASEDIYSNLAWYQKKPGQSPRLLIYAANRLQDGVPARFSGSGSGTEYTLTISSLQSEDFAVYFCLQGSKFPLTFGQGTKLEIKR: 8.83
- h38H12.6 (antibody, V domains shown, humanized IgG; also called VH.1a/VL.1a 38H12) VH: EVQLVESGGGVVQPGRSLRLSCAASGFTFSNYGMYWIRQAPGKGLEWVAFISHGGGITYYRDSVKGRFTISRDNSKSTLYLQMNSLRAEDTAVYHCAALNWELGIDYWGQGTMVTVSS VL: DIQMTQSPSSLSASVGDRVTITCRASEDIYSNLAWYQKKPGKSPKLLIYAANRLQDGVPSRFSGSGSGTDYTLTISSLQPEDFATYFCLQGSKFPLTFGQGTKLEIKR: 7.91
